# reported IC50; entries follow
TARGET: Tyrosine-protein phosphatase non-receptor type 1 (Homo sapiens, UniProt P18031)
Sequence (P18031 whole entry): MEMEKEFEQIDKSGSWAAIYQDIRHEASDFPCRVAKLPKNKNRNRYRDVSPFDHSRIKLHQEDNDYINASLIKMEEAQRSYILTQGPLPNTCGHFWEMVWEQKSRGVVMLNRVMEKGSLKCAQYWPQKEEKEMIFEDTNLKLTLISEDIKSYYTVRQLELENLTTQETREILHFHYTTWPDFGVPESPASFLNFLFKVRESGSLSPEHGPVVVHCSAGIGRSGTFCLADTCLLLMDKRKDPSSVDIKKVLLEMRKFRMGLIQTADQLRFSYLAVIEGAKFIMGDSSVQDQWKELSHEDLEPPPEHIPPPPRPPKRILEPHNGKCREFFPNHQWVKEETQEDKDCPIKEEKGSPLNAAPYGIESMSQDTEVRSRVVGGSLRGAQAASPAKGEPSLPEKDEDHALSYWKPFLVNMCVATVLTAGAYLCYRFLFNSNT

MOLECULE: O=C1/C(=N\Nc2ccc(S(=O)(=O)O)cc2)C(c2ccc([N+](=O)[O-])cc2)NN1c1ccccc1 (configuration not stated)
UNIT ABBREVIATION: µM
IC50: 14.5
--
MOLECULE: Cn1cc(-c2cn(CC(=O)Nc3nc4ccccc4s3)nn2)c2cc(C(=O)O)c(O)cc21
UNIT ABBREVIATION: µM
IC50: 2.1

###

TARGET: Tyrosine-protein phosphatase non-receptor type 11 (Homo sapiens, UniProt Q06124)
Sequence (Q06124 whole entry): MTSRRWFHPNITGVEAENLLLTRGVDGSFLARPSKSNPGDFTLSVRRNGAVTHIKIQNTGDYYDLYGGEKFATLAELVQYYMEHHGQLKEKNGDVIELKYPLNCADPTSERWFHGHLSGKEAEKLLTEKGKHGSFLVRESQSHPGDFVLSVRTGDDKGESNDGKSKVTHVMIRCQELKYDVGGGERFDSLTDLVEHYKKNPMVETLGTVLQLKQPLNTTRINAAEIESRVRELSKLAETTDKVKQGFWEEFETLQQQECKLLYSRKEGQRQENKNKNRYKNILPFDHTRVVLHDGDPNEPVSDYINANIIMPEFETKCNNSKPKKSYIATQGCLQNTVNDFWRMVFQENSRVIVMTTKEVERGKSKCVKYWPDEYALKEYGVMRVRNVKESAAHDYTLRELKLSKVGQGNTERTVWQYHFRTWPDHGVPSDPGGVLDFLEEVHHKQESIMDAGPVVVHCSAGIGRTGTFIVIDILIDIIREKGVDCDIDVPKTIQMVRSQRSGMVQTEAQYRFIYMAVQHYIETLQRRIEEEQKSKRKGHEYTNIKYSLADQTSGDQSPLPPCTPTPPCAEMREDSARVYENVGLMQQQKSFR
ASSAY ENDPOINT: IC50 (µM)

COMPOUND: O=C1Nc2cc(S(=O)(=O)O)ccc2C1/N=N/c1ccccc1[N+](=O)[O-] (stereo unspecified)
ASSAY ENDPOINT: IC50
MEAS VALUE: 47
